- assay-comment: Model ecosystem: distribution, ecological magnification and Biodegradability Index
- condition: Physa (snail); 33 days; 5.0 mg 3H-ethoxyaniline to Sorghum
- Description: After the amounts of the various metabolites have been calculated and a determination is made as to which of the metabolites are to be designated as "polar" and which are to be designated as "non-polar", a Biodegradability Index (amount of polar metabolites/amount of nonpolar metabolites) may be calculated. […]
Known Concentration of ethoxyaniline equivalents in Physa (snail) of a selection of compounds
Include the unit after the number when you answer.

Consider the following illustrative entries.
| compound | value-observed |
| --- | --- |
| Oc1ccc(NC(c2ccc(O)cc2)C(Cl)(Cl)Cl)cc1 (stereo not drawn) [HOC6 H4 NHCH(CCl3)C6 H4 OH] | 1.512 ppm |
| CCOc1ccc(NC(c2ccc(OCC)cc2)C(Cl)(Cl)Cl)cc1 (stereo not drawn) [Compound III] | 22.68 ppm |
| CCOc1ccc(N)cc1 [C2 H5 OC6 H4 NH2, p-ethoxyaniline] | 2.556 ppm |
| CCOc1ccc(NC(c2ccc(O)cc2)C(Cl)(Cl)Cl)cc1 (stereo not drawn) [C2 H5 OC6 H4 NHCH(CCl3)C6 H4 OH] | 2.02 ppm |
| CCOc1ccc(C(=O)O)cc1 [C2 H5 OC6 H4 C(O)OH, p-ethoxybenzoic acid] | 1.800 ppm |

Using the record for CCOc1ccc(C(=O)C(Cl)Cl)cc1 [C2 H5 OC6 H4 C(O)CHCl2, p-ethoxydichloroacetophenone] , report its Concentration of ethoxyaniline equivalents in Physa (snail).
3.542 ppm

Where do the numbers come from? From patent US3941842A.
